Target: CDK5/p25 (Homo sapiens)
Sequence (Q00535 whole entry, species assumed): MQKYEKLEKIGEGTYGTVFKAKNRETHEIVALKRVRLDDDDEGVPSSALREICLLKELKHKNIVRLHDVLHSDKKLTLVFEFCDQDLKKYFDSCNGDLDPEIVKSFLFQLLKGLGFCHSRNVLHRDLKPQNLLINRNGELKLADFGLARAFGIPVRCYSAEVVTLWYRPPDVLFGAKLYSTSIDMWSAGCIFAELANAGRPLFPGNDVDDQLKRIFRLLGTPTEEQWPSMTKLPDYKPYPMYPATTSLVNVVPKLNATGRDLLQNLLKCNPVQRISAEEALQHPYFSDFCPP
Sequence (Q15078 99-307 partner limits assumed, species assumed): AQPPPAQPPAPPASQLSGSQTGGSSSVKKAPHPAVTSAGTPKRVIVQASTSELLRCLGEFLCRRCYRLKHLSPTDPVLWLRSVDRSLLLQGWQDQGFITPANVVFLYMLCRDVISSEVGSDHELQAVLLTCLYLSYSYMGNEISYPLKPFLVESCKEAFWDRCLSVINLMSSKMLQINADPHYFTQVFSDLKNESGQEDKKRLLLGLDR
Assay: CDK5/p25 kinase assay
Assay type: biochemical, mammalian
Conditions: 15 μM ATP, 30° C., histone H1 substrate
Would you kindly list IC50 for each of these compounds?
Answers are plain numbers, in nM.

Reference set (3 entries):
{"columns": ["compound", "IC50, nM"],
 "data": [
  ["CCc1cnn2c(NCc3ccc(-c4ccccn4)cc3)nc(NC[C@@H](O)CO)nc12", 25],
  ["CC(C)c1cnn2c(NCc3ccc(-c4ccccn4)cc3)nc(NC(CO)CO)nc12 [Compound 17]", 53],
  ["CC(C)c1cnn2c(NCc3ccc(-c4ccccn4)cc3)nc(NC(CO)CO)nc12 [Compound 18]", 64]
]}

Go through the list and state IC50 for each entry.
1. CC(C)c1cnn2c(NCc3ccc(-c4ccccn4)cc3)nc(N[C@@H](CO)[C@H](C)O)nc12 (stereo in doubt) [Compound 14]
2. CC(C)c1cnn2c(NCc3ccc(-c4ccccn4)cc3)nc(N[C@H](CO)[C@@H](C)O)nc12 (stereo in doubt) [Compound 12]
3. CC(C)c1cnn2c(NCc3ccc(-c4ccccn4)cc3)nc(N[C@@H](CO)[C@H](C)O)nc12 [Compound 15]
4. CC(C)c1cnn2c(NCc3ccc(-c4ccccn4)cc3)nc(NC[C@H](O)CO)nc12
5. CC(C)c1cnn2c(NCc3ccc(-c4ccccn4)cc3)nc(N[C@H](CO)C(C)C)nc12
6. CC(C)c1cnn2c(NCc3ccc(-c4ccccc4)nc3)nc(N[C@@H](CO)[C@H](C)O)nc12
7. CC[C@H](CO)Nc1nc(NCc2ccc(-c3ccccn3)cc2)n2ncc(C(C)C)c2n1 [Compound 3]
8. CCc1cnn2c(NCc3ccc(-c4ccccn4)cc3)nc(N[C@H](CC)CO)nc12

44
29
45
14
120
43
18
22

----------
Biological target: CDK9/cyclin T (Homo sapiens)
Sequence (P50750 whole entry): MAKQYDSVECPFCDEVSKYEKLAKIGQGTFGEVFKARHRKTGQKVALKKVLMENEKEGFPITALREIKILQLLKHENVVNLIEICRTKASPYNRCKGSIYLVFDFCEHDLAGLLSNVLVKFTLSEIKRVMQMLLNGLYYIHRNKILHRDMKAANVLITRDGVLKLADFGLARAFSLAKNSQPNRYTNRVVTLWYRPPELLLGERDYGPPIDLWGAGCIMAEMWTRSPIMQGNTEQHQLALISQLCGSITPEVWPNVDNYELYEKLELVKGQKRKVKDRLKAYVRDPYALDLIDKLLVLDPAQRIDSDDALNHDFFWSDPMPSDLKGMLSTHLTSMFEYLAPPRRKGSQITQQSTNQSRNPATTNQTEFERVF
Sequence (O60563 whole entry partner): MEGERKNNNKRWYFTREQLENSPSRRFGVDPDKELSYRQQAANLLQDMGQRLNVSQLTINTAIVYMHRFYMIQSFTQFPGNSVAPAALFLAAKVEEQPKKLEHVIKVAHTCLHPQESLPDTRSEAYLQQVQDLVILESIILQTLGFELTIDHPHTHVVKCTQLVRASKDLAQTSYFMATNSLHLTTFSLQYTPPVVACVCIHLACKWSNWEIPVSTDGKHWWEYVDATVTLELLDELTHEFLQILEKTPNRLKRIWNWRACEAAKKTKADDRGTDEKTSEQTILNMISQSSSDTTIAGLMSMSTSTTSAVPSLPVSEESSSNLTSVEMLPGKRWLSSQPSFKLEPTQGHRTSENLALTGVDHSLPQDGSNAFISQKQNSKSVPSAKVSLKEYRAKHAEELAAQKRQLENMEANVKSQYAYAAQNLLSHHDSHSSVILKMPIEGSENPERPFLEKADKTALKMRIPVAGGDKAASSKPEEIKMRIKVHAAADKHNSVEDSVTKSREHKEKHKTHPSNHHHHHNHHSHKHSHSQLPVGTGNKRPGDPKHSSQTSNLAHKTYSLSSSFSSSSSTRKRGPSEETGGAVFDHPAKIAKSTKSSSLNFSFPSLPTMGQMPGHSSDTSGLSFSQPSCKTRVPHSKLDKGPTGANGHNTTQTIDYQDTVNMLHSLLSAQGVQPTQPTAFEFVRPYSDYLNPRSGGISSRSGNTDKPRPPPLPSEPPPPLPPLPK
Assay: CDK9/cyclin T kinase assay
Settings: 15 μM ATP, 30° C., pRB fragment substrate
Would you kindly list pIC50 for each of these compounds?
Numbers only, as −log10 of the molar value.

{"columns": ["compound", "pIC50"],
 "data": [
  ["CC(C)c1cnn2c(NCc3ccc(-c4ccccn4)cc3)nc(N[C@@H](CO)[C@H](C)O)nc12 [Compound 15]", 7.22],
  ["CC(C)c1cnn2c(NCc3ccc(-c4ccccn4)cc3)nc(NC(CO)CO)nc12 [Compound 18]", 7.21]
]}

Here is another compound to look at.
Request body: readout pIC50, system CDK9/cyclin T (Homo sapiens), query CC(C)c1cnn2c(NCc3ccc(-c4ccccn4)cc3)nc(N[C@H](CO)[C@@H](C)O)nc12 (stereo in doubt) [Compound 12] . Return the value. 7.22

----------
Would you kindly list IC50 for each of these molecules?
Molecular target: GSK-3α/β
Experiment: GSK-3α/β kinase assay
Conditions: 15 μM ATP, 30° C., buffer A, GS-1 substrate
One number for each entry, in nM.

Reference set (3 entries):
{"columns": ["molecule", "tested target", "property name", "readout value"],
 "data": [
  ["CCc1cnn2c(NCc3ccc(-c4ccccn4)cc3)nc(NC[C@H](O)CO)nc12", "GSK-3α/β", "IC50", 530],
  ["CCc1cnn2c(NCc3ccc(-c4ccccn4)cc3)nc(NC[C@@H](O)CO)nc12", "GSK-3α/β", "IC50", 1000],
  ["CC(C)c1cnn2c(NCc3ccc(-c4ccsc4)cc3)nc(N[C@H](CO)[C@@H](C)O)nc12 (stereo in doubt)", "GSK-3α/β", "IC50", 4200]
]}

Go through the list and state IC50 for each entry.
1. CC(C)c1cnn2c(NCc3ccc(-c4ccccn4)cc3)nc(N[C@H](CO)[C@@H](C)O)nc12 [Compound 13]
2. CC(C)c1cnn2c(NCc3ccc(-c4ccccn4)cc3)nc(N3CCN(CCO)CC3)nc12
3. CC(C)c1cnn2c(NCc3ccc(-c4ccccc4)nc3)nc(N[C@H](CO)[C@@H](C)O)nc12
4. CCc1cnn2c(NCc3ccc(-c4ccccn4)cc3)nc(N[C@H](CC)CO)nc12

2300
2100
1200
1600

Go through the list and state IC50 for each entry.
1. CC(C)c1cnn2c(NCc3ccc(-c4ccccn4)cc3)nc(N[C@@H](CO)[C@H](C)O)nc12 [Compound 15]
2. CC[C@H](CO)Nc1nc(NCc2ccccc2)n2ncc(C(C)C)c2n1 [N-&-N1, reference compound]
3. CC(C)c1cnn2c(NCc3ccc(-c4ccccn4)cc3)nc(N[C@H](CO)[C@@H](C)O)nc12 (stereo in doubt) [Compound 12]

2200
11000
3000
